Cited source: paper PMC7962117

- assayed-system: AaLpxC (Aquifex aeolicus, UniProt O67648, I18A)
- Construct: codon-optimised gene in pET-21a (NdeI/XhoI), E. coli BL21(DE3); approx. 32 kDa; Zn2+ enzyme; last five residues LTRLE disordered in crystal
- method-notes: isothermal titration calorimetry
property-label: pKd
Field pKd (float): negative decimal logarithm of the concentration in molar.

INPUT: Find the measured pKd of `CC(C)(N)[C@H](NC(=O)c1ccc(C#CC#C[C@@H]2C[C@H]2CO)cc1)C(=O)NO` and report it.
OUTPUT: 6.40

----------
- assayed-system: AaLpxC (Aquifex aeolicus, UniProt O67648, E73A)
- Construct: codon-optimised gene in pET-21a (NdeI/XhoI), E. coli BL21(DE3); approx. 32 kDa; Zn2+ enzyme; last five residues LTRLE disordered in crystal
- Sequence (O67648 1-271 E73A): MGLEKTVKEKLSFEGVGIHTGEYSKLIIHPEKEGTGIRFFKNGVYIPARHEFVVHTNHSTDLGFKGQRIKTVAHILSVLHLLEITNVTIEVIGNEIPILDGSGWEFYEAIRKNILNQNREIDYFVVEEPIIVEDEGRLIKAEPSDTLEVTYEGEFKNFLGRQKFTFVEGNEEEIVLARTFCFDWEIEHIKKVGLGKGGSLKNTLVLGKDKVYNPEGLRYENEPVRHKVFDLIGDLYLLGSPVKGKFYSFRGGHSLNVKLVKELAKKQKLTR
- method-notes: isothermal titration calorimetry
property-label: pKd
Units for pKd: none; it is -log10 of a concentration expressed in mol/L.

INPUT: Answer with the recorded pKd of CC(C)(N)[C@H](NC(=O)c1ccc(C#CC#C[C@@H]2C[C@H]2CO)cc1)C(=O)NO [ACHN-975] only.
OUTPUT: 7.15

----------
- assayed-system: AaLpxC (Aquifex aeolicus, UniProt O67648, H19A)
- Construct: codon-optimised gene in pET-21a (NdeI/XhoI), E. coli BL21(DE3); approx. 32 kDa; Zn2+ enzyme; last five residues LTRLE disordered in crystal
- Sequence (O67648 1-271 H19A): as the sequence (O67648 1-271 E73A) above, with H19A, A73E counted along it
- method-notes: isothermal titration calorimetry
property-label: pKd
Worth noting: pKd values are minus log10 of concentrations stated in mol/L.

INPUT: Please report pKd for the following compound: `CC(C)(N)[C@H](NC(=O)c1ccc(C#CC#C[C@@H]2C[C@H]2CO)cc1)C(=O)NO`
OUTPUT: 6.40

----------
- assayed-system: AaLpxC (Aquifex aeolicus, UniProt O67648, S59A)
- Construct: codon-optimised gene in pET-21a (NdeI/XhoI), E. coli BL21(DE3); approx. 32 kDa; Zn2+ enzyme; last five residues LTRLE disordered in crystal
- Sequence (O67648 1-271 S59A): as the sequence (O67648 1-271 E73A) above, with S59A, A73E counted along it
- method-notes: isothermal titration calorimetry
property-label: pKd
Keep it numeric: pKd is minus log10 of the concentration in mol/L.

INPUT: Give pKd for the following compound: `CC(C)(N)[C@H](NC(=O)c1ccc(C#CC#C[C@@H]2C[C@H]2CO)cc1)C(=O)NO`
OUTPUT: 6.40

----------
- assayed-system: AaLpxC (Aquifex aeolicus, UniProt O67648, E185A)
- Construct: codon-optimised gene in pET-21a (NdeI/XhoI), E. coli BL21(DE3); approx. 32 kDa; Zn2+ enzyme; last five residues LTRLE disordered in crystal
- Sequence (O67648 1-271 E185A): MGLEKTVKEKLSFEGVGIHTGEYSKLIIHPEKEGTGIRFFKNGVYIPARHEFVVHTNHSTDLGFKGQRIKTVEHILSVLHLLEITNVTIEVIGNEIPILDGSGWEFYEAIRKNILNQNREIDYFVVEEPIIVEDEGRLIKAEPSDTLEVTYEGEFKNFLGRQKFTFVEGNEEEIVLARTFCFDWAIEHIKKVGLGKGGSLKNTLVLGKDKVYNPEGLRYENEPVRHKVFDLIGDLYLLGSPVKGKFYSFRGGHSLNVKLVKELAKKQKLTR
- method-notes: isothermal titration calorimetry
property-label: Kd
# output: numeric value plus its unit

INPUT: Provide measured Kd value, entry: `CC(C)(N)[C@H](NC(=O)c1ccc(C#CC#C[C@@H]2C[C@H]2CO)cc1)C(=O)NO`
OUTPUT: 60 nM

----------
- assayed-system: AaLpxC (Aquifex aeolicus, UniProt O67648, K227A)
- Construct: codon-optimised gene in pET-21a (NdeI/XhoI), E. coli BL21(DE3); approx. 32 kDa; Zn2+ enzyme; last five residues LTRLE disordered in crystal
- method-notes: isothermal titration calorimetry
property-label: Kd (µM)
Answer format: numeric, µM implied, no suffix.

INPUT: Using known records, supply Kd for CC(C)(N)[C@H](NC(=O)c1ccc(C#CC#C[C@@H]2C[C@H]2CO)cc1)C(=O)NO [ACHN-975]
OUTPUT: 0.1

----------
- assayed-system: AaLpxC (Aquifex aeolicus, UniProt O67648, I189A)
- Construct: codon-optimised gene in pET-21a (NdeI/XhoI), E. coli BL21(DE3); approx. 32 kDa; Zn2+ enzyme; last five residues LTRLE disordered in crystal
- Sequence (O67648 1-271 I189A): as the sequence (O67648 1-271 E185A) above, with A185E, I189A counted along it
- method-notes: isothermal titration calorimetry
property-label: Kd (nM)
The response must be a number in nM with no trailing unit.

INPUT: Read off the recorded Kd for `CC(C)(N)[C@H](NC(=O)c1ccc(C#CC#C[C@@H]2C[C@H]2CO)cc1)C(=O)NO`
OUTPUT: 100

----------
- assayed-system: AaLpxC (Aquifex aeolicus, UniProt O67648, I186A)
- Construct: codon-optimised gene in pET-21a (NdeI/XhoI), E. coli BL21(DE3); approx. 32 kDa; Zn2+ enzyme; last five residues LTRLE disordered in crystal
- Sequence (O67648 1-271 I186A): as the sequence (O67648 1-271 E185A) above, with A185E, I186A counted along it
- method-notes: isothermal titration calorimetry
property-label: pKd
Kindly note that pKd refers to -log10 of the concentration in mol/L and answer with the value alone.

INPUT: Please look at this compound and report its pKd: CC(C)(N)[C@H](NC(=O)c1ccc(C#CC#C[C@@H]2C[C@H]2CO)cc1)C(=O)NO [ACHN-975]
OUTPUT: 6.70

----------
- assayed-system: AaLpxC (Aquifex aeolicus, UniProt O67648, F180A)
- Construct: codon-optimised gene in pET-21a (NdeI/XhoI), E. coli BL21(DE3); approx. 32 kDa; Zn2+ enzyme; last five residues LTRLE disordered in crystal
- Sequence (O67648 1-271 F180A): as the sequence (O67648 1-271 E73A) above, with A73E, F180A counted along it
- method-notes: isothermal titration calorimetry
property-label: Kd (nM)
Your answer should be a plain number; it is taken to be in nM.

INPUT: Give Kd for this entry on AaLpxC (Aquifex aeolicus, UniProt O67648, F180A): CC(C)(N)[C@H](NC(=O)c1ccc(C#CC#C[C@@H]2C[C@H]2CO)cc1)C(=O)NO [ACHN-975]
OUTPUT: 90
